# Test system: SK-OV-3 ovarian
# EXPERIMENT_DESCRIPTION: NCI-60 one-dose screen, 48 h (100 = growth as untreated, 0 = no growth, -100 = all killed)
# REPORTED_CONDITIONS: 10 µM unless noted
Compounds without any hit were thinned out: in the full panel of roughly 83,000, 20% have a hit.
Recorded growth split into classes label 0 = under 30%, label 1 = from 30% up to 70%, label 2 = 70% and over

Here are 8 compounds together with their reported answers.
# COMPOUND, CLASS_ASSIGNMENT
data = [
    ("Nc1nc(Nc2ccccc2)c(C=Nc2ccccc2)c(=O)[nH]1", "label 2"),
    ("CN1CCN(CC(=O)Nc2ccc(-c3nc4ccccc4s3)cc2)CC1", "label 2"),
    ("Clc1ccc(Nc2nccc(Nc3ccc4[nH]ncc4c3)n2)cc1", "label 2"),
    ("O=C1CC(c2cccc(F)c2)c2c(n[nH]c2-c2ccc(Cl)cc2)N1 (configuration not stated)", "label 2"),
    ("O=C(Nc1ccc(-c2ccnc(Nc3ccc(N4CCOCC4)cc3)n2)cc1)[C@@H]1CCCN1", "label 1"),
    ("CCS(=O)(=O)N1CCN(c2ccc(Nc3ncc(C(N)=O)c(NC4CC4)n3)cc2)CC1", "label 2"),
    ("CNC(=O)c1cc(Oc2ccc3nc(NC(=O)Nc4ccc(Cl)c(C(F)(F)F)c4)sc3c2)ccn1", "label 0"),
    ("COc1ccc2c(CCCC(c3ccccc3)c3ccccc3)c3[n+](cc2c1OC)CCc1cc2c(cc1-3)OCO2", "label 0"),
]

input: Which bin, given its growth, does `C/C(=C(/c1ccc(Cl)cc1)c1ccc(OCCN2CCCCCC2)cc1)c1ccccc1` occupy?
output: label 2

input: Which bin, given its growth, does `C/C(=C(/c1ccc(Cl)cc1)c1ccc(OCCN2CCCC2)cc1)c1ccccc1` occupy?
output: label 2

---

# System: NCI-H226 lung
# EXPERIMENT_DESCRIPTION: NCI-60 one-dose screen, 48 h
# REPORTED_CONDITIONS: 10 µM unless noted
Compounds without any hit were thinned out: in the full panel of roughly 83,000, 20% have a hit. The source made the active and inactive calls. The calls were made as follows: active = growth percent below 10; inactive = the rest.
Bench note: report the call from true (1) for active, false (0) for inactive

Here are 6 compounds together with their reported answers.
# COMPOUND, CLASS_ASSIGNMENT
measured = [
    ("COC(=O)N[C@@H](C)CNc1nccc(-c2cn(C(C)C)nc2-c2cc(Cl)cc(NS(C)(=O)=O)c2F)n1", "false (0)"),
    ("COC(=O)[C@@H](NC(=O)[C@@H](OC)[C@@H]1Cc2cc3cc(OC4CC(OC5CC(O)C(O)C(C)O5)C(O)C(C)O4)c(C)c(O)c3c(O)c2C(=O)[C@H]1OC1CC(OC2CC(OC3CC(C)(O)C(O)C(C)O3)C(O)C(C)O2)C(O)C(C)O1)C(C)C (stereo partly specified)", "true (1)"),
    ("CN1CCN(c2nc(C3=C(c4c[nH]c5ccccc45)C(=O)NC3=O)c3ccccc3n2)CC1", "false (0)"),
    ("O=C(NOC[C@H](O)CO)c1ccc(F)c(F)c1Nc1ccc(I)cc1F", "false (0)"),
    ("CN(C)C[C@@H]1CCn2cc(c3ccccc32)C2=C(C(=O)NC2=O)c2cn(c3ccccc23)CCO1", "true (1)"),
    ("C[C@@H](Oc1cc(C(=O)Nc2ccc(C(=O)N3CCN(C)CC3)cc2)nnc1N)c1c(Cl)ccc(F)c1Cl", "false (0)"),
]

Okay, next one:
input: Please let me know the test result on file for COc1ccc(-c2cc3c(oc2=O)-c2ccccc2OC3OC(C)=O)cc1 (stereo unspecified) .
output: false (0)
